# stated.conditions: in methanol, 313.15 K
property.label: solubility (mole fraction)
Answers are plain numbers.

// COc1cc2c(cc1OC)C(=O)C(CC1CCN(Cc3ccccc3)CC1)C2.Cl (stereo unspecified) : solubility (mole fraction) value = 0.0105

====

# stated.conditions: in methanol, 333.15 K
property.label: solubility (mole fraction)
Answers are plain numbers.

// COc1cc2c(cc1OC)C(=O)C(CC1CCN(Cc3ccccc3)CC1)C2.Cl (stereo unspecified) : solubility (mole fraction) value = 0.0277

====

# stated.conditions: in ethanol, 278.15 K
property.label: solubility (mole fraction)
Numbers only.

// COc1cc2c(cc1OC)C(=O)C(CC1CCN(Cc3ccccc3)CC1)C2.Cl (stereo unspecified) : solubility (mole fraction) value = 0.000291

====

# stated.conditions: in DMF, 333.15 K
property.label: solubility (mole fraction)
Numbers only.

// COc1cc2c(cc1OC)C(=O)C(CC1CCN(Cc3ccccc3)CC1)C2.Cl (stereo unspecified) : solubility (mole fraction) value = 0.00476

====

# stated.conditions: in ethanol, 323.15 K
property.label: solubility (mole fraction)

// COc1cc2c(cc1OC)C(=O)C(CC1CCN(Cc3ccccc3)CC1)C2.Cl (stereo unspecified) : solubility (mole fraction) value = 0.00215

====

# stated.conditions: in methanol, 283.15 K
property.label: solubility (mole fraction)
One number for each entry.

// COc1cc2c(cc1OC)C(=O)C(CC1CCN(Cc3ccccc3)CC1)C2.Cl (stereo unspecified) : solubility (mole fraction) value = 0.00222

====

# stated.conditions: in ethanol, 328.15 K
property.label: solubility (mole fraction)

// COc1cc2c(cc1OC)C(=O)C(CC1CCN(Cc3ccccc3)CC1)C2.Cl (stereo unspecified) : solubility (mole fraction) value = 0.00259

====

# stated.conditions: in DMF, 288.15 K
property.label: solubility (mole fraction)

// COc1cc2c(cc1OC)C(=O)C(CC1CCN(Cc3ccccc3)CC1)C2.Cl (stereo unspecified) : solubility (mole fraction) value = 0.00152

====

# stated.conditions: in n-propanol, 308.15 K
property.label: solubility (mole fraction)
One number for each entry.

// COc1cc2c(cc1OC)C(=O)C(CC1CCN(Cc3ccccc3)CC1)C2.Cl (stereo unspecified) : solubility (mole fraction) value = 0.000743

====

# stated.conditions: in DMF, 318.15 K
property.label: solubility (mole fraction)
Answers are plain numbers.

// COc1cc2c(cc1OC)C(=O)C(CC1CCN(Cc3ccccc3)CC1)C2.Cl (stereo unspecified) : solubility (mole fraction) value = 0.00325

====

# stated.conditions: in ethanol, 313.15 K
property.label: solubility (mole fraction)
Give bare numbers.

// COc1cc2c(cc1OC)C(=O)C(CC1CCN(Cc3ccccc3)CC1)C2.Cl (stereo unspecified) : solubility (mole fraction) value = 0.00145

====

# stated.conditions: in n-propanol, 278.15 K
property.label: solubility (mole fraction)
Numbers only.

// COc1cc2c(cc1OC)C(=O)C(CC1CCN(Cc3ccccc3)CC1)C2.Cl (stereo unspecified) : solubility (mole fraction) value = 0.000112

====

# stated.conditions: in n-propanol, 333.15 K
property.label: solubility (mole fraction)
Numbers only.

// COc1cc2c(cc1OC)C(=O)C(CC1CCN(Cc3ccccc3)CC1)C2.Cl (stereo unspecified) : solubility (mole fraction) value = 0.00321

====

# stated.conditions: in ethanol, 308.15 K
property.label: solubility (mole fraction)
One number for each entry.

// COc1cc2c(cc1OC)C(=O)C(CC1CCN(Cc3ccccc3)CC1)C2.Cl (stereo unspecified) : solubility (mole fraction) value = 0.00118

====

# stated.conditions: in DMF, 313.15 K
property.label: solubility (mole fraction)
Give bare numbers.

// COc1cc2c(cc1OC)C(=O)C(CC1CCN(Cc3ccccc3)CC1)C2.Cl (stereo unspecified) : solubility (mole fraction) value = 0.00286

====

# stated.conditions: in DMF, 278.15 K
property.label: solubility (mole fraction)
Numbers only.

// COc1cc2c(cc1OC)C(=O)C(CC1CCN(Cc3ccccc3)CC1)C2.Cl (stereo unspecified) : solubility (mole fraction) value = 0.00119

====

# stated.conditions: in methanol, 308.15 K
property.label: solubility (mole fraction)

// COc1cc2c(cc1OC)C(=O)C(CC1CCN(Cc3ccccc3)CC1)C2.Cl (stereo unspecified) : solubility (mole fraction) value = 0.00803

====

# stated.conditions: in ethanol, 318.15 K
property.label: solubility (mole fraction)
Numbers only.

// COc1cc2c(cc1OC)C(=O)C(CC1CCN(Cc3ccccc3)CC1)C2.Cl (stereo unspecified) : solubility (mole fraction) value = 0.00177

====

# stated.conditions: in DMF, 283.15 K
property.label: solubility (mole fraction)

// COc1cc2c(cc1OC)C(=O)C(CC1CCN(Cc3ccccc3)CC1)C2.Cl (stereo unspecified) : solubility (mole fraction) value = 0.00135

====

# stated.conditions: in ethanol, 288.15 K
property.label: solubility (mole fraction)
One number for each entry.

// COc1cc2c(cc1OC)C(=O)C(CC1CCN(Cc3ccccc3)CC1)C2.Cl (stereo unspecified) : solubility (mole fraction) value = 0.000484

====

# stated.conditions: in DMF, 323.15 K
property.label: solubility (mole fraction)
Numbers only.

// COc1cc2c(cc1OC)C(=O)C(CC1CCN(Cc3ccccc3)CC1)C2.Cl (stereo unspecified) : solubility (mole fraction) value = 0.00368

====

# stated.conditions: in DMF, 308.15 K
property.label: solubility (mole fraction)
Give bare numbers.

// COc1cc2c(cc1OC)C(=O)C(CC1CCN(Cc3ccccc3)CC1)C2.Cl (stereo unspecified) : solubility (mole fraction) value = 0.00251

====

# stated.conditions: in n-propanol, 328.15 K
property.label: solubility (mole fraction)
Give bare numbers.

// COc1cc2c(cc1OC)C(=O)C(CC1CCN(Cc3ccccc3)CC1)C2.Cl (stereo unspecified) : solubility (mole fraction) value = 0.00241

====

# stated.conditions: in methanol, 288.15 K
property.label: solubility (mole fraction)
Give bare numbers.

// COc1cc2c(cc1OC)C(=O)C(CC1CCN(Cc3ccccc3)CC1)C2.Cl (stereo unspecified) : solubility (mole fraction) value = 0.00287

====

# stated.conditions: in n-propanol, 298.15 K
property.label: solubility (mole fraction)

// COc1cc2c(cc1OC)C(=O)C(CC1CCN(Cc3ccccc3)CC1)C2.Cl (stereo unspecified) : solubility (mole fraction) value = 0.000404

====

# stated.conditions: in methanol, 318.15 K
property.label: solubility (mole fraction)
Numbers only.

// COc1cc2c(cc1OC)C(=O)C(CC1CCN(Cc3ccccc3)CC1)C2.Cl (stereo unspecified) : solubility (mole fraction) value = 0.0133

====

# stated.conditions: in n-propanol, 303.15 K
property.label: solubility (mole fraction)

// COc1cc2c(cc1OC)C(=O)C(CC1CCN(Cc3ccccc3)CC1)C2.Cl (stereo unspecified) : solubility (mole fraction) value = 0.000543

====

# stated.conditions: in methanol, 298.15 K
property.label: solubility (mole fraction)
Give bare numbers.

// COc1cc2c(cc1OC)C(=O)C(CC1CCN(Cc3ccccc3)CC1)C2.Cl (stereo unspecified) : solubility (mole fraction) value = 0.00483

====

# stated.conditions: in methanol, 323.15 K
property.label: solubility (mole fraction)
Answers are plain numbers.

// COc1cc2c(cc1OC)C(=O)C(CC1CCN(Cc3ccccc3)CC1)C2.Cl (stereo unspecified) : solubility (mole fraction) value = 0.017

====

# stated.conditions: in methanol, 303.15 K
property.label: solubility (mole fraction)
Answers are plain numbers.

// COc1cc2c(cc1OC)C(=O)C(CC1CCN(Cc3ccccc3)CC1)C2.Cl (stereo unspecified) : solubility (mole fraction) value = 0.00636

====

# stated.conditions: in n-propanol, 323.15 K
property.label: solubility (mole fraction)
One number for each entry.

// COc1cc2c(cc1OC)C(=O)C(CC1CCN(Cc3ccccc3)CC1)C2.Cl (stereo unspecified) : solubility (mole fraction) value = 0.0018

====

# stated.conditions: in ethanol, 298.15 K
property.label: solubility (mole fraction)

// COc1cc2c(cc1OC)C(=O)C(CC1CCN(Cc3ccccc3)CC1)C2.Cl (stereo unspecified) : solubility (mole fraction) value = 0.000768

====

# stated.conditions: in n-propanol, 318.15 K
property.label: solubility (mole fraction)
One number for each entry.

// COc1cc2c(cc1OC)C(=O)C(CC1CCN(Cc3ccccc3)CC1)C2.Cl (stereo unspecified) : solubility (mole fraction) value = 0.00133

====

# stated.conditions: in n-propanol, 313.15 K
property.label: solubility (mole fraction)
Give bare numbers.

// COc1cc2c(cc1OC)C(=O)C(CC1CCN(Cc3ccccc3)CC1)C2.Cl (stereo unspecified) : solubility (mole fraction) value = 0.00102

====

# stated.conditions: in ethanol, 283.15 K
property.label: solubility (mole fraction)
Give bare numbers.

// COc1cc2c(cc1OC)C(=O)C(CC1CCN(Cc3ccccc3)CC1)C2.Cl (stereo unspecified) : solubility (mole fraction) value = 0.000379
